The origin of these recorded values is patent US9029531B2.

IC50, UniProt:O94925: measured values

{"compound": "COCCOc1ccc(CC(=O)Nc2nnc([C@H]3CCC[C@H](c4nnc(NC(=O)Cc5cccc(N6CC(F)(F)C6)n5)s4)C3)s2)nc1", "IC50": "< 0.1 µM"}
{"compound": "COc1cccc(CC(=O)Nc2nnc([C@@H]3CCCC[C@H](c4nnc(NC(=O)Cc5cccc(OC)c5)s4)C3)s2)c1", "IC50": "0.5 to 1 µM"}
{"compound": "N#Cc1ccccc1CC(=O)Nc1nnc(C2CCCCC(c3nnc(NC(=O)Cc4ccccc4C#N)s3)C2)s1 (stereo not shown)", "IC50": "0.5 to 1 µM"}
{"compound": "CC(=O)Nc1nnc([C@H]2CCC[C@H](c3nnc(NC(=O)Cc4cccc(N5CC(F)(F)C5)n4)s3)C2)s1", "IC50": "< 0.1 µM"}
{"compound": "O=C(Cc1ccccn1)Nc1nnc(CC2CC(Cc3nnc(NC(=O)Cc4ccccn4)s3)C2)s1 (stereo not shown)", "IC50": "2 to 10 µM"}
{"compound": "COc1ccc(CC(=O)Nc2nnc([C@H]3CC[C@H](c4nnc(NC(=O)Cc5ccc(OC)nc5)s4)C3)s2)cn1", "IC50": "< 0.1 µM"}
{"compound": "COc1ccc(CC(=O)Nc2nnc([C@H]3CCC[C@H](c4nnc(NC(=O)Cc5ccc(OC)cn5)s4)C3)s2)nc1", "IC50": "< 0.1 µM"}

====

experimental-system: glutaminase (GAC) (Homo sapiens)
Sequence (O94925 55-598 isoform O94925-3 limits assumed): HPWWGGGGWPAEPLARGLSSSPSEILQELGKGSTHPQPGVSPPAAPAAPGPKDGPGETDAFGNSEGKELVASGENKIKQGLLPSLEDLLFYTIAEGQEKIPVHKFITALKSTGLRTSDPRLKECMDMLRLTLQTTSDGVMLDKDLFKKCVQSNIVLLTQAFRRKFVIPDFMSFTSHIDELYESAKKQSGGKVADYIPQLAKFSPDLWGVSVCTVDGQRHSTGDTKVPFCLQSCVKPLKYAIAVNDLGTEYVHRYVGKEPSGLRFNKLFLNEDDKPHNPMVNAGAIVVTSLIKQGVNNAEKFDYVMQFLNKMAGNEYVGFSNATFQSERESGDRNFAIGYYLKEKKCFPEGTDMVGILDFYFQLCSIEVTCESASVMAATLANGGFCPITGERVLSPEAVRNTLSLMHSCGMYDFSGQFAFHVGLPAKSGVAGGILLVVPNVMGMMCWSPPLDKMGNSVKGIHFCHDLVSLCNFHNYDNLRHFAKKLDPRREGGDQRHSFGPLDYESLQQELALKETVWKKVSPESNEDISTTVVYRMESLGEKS
pIC50: −log10 of the molar value.
Below, each entry is listed with its recorded pIC50.
measured-metric: pIC50

{"compound": "NC(=O)c1ccc(CC(=O)Nc2nnc([C@H]3CCC[C@H](c4nnc(NC(=O)Cc5ccc(C(N)=O)cn5)s4)C3)s2)nc1", "val": "> 7.00"}
{"compound": "O=C(Cc1cccc(N2CCCC2)c1)Nc1nnc([C@H]2CCC[C@H](c3nnc(NC(=O)Cc4cccc(N5CCCC5)c4)s3)C2)s1", "val": "6.30 to 7.00"}
{"compound": "O=C(Cc1cccc([N+](=O)[O-])c1)Nc1nnc(C2CCC(c3nnc(NC(=O)Sc4cccc([N+](=O)[O-])c4)s3)C2)s1 (stereo not shown)", "val": "6.30 to 7.00"}
{"compound": "COc1ccnc(CC(=O)Nc2nnc([C@H]3CCC[C@H](c4nnc(NC(=O)Cc5cc(OC)ccn5)s4)C3)s2)c1", "val": "> 7.00"}
{"compound": "COc1ccccc1CC(=O)Nc1nnc([C@H]2CCC[C@H](c3nnc(NC(=O)Cc4ccccn4)s3)C2)s1", "val": "> 7.00"}
{"compound": "CCOc1ccc(CC(=O)Nc2nnc([C@H]3CCC[C@H](c4nnc(NC(=O)Cc5ccc(OCC)cn5)s4)C3)s2)nc1", "val": "> 7.00"}
{"compound": "O=C(Cc1ccccc1)Nc1nnc([C@@H]2CCC[C@@H](c3nnc(NC(=O)Cc4ccccc4)s3)C2)s1", "val": "> 7.00"}
